composite z-score values by entry
tested on: Human papillomavirus type 1a protein E7 (residues 44-93); assay: small molecules binding HPV E7 44-93 – biochemical, small-molecule microarray, residues 44-93, 635 nm fluorescence, primary screen (AID 1108); conditions: fluorescence 635 nm, higher = more signal;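 also: E7 fragment applied at 1 µg/mL in TBST for 1 h at 4 C; score combines spot fluorescence with its signal to noise ratio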

Some solved cases for reference:
INPUT SMILES: C=CC[C@]1(C(=O)N2CCOCC2)N=C(c2ccc(OCCCO)cc2)O[C@H]1c1ccccc1N=[N+]=[N-]
STUDY SYSTEM: Human papillomavirus type 1a protein E7 (residues 44-93)
EXPERIMENTAL VALUE: 1.47
//
INPUT SMILES: COc1cc2c(cc1O)C=[N+](Cc1cc3c(cc1Br)OCO3)CC2
STUDY SYSTEM: Human papillomavirus type 1a protein E7 (residues 44-93)
EXPERIMENTAL VALUE: -0.411
//
INPUT SMILES: COC(=O)[C@@]1(Cc2ccc(OC)cc2)[C@H]2c3cc(C(=O)N4CCCC4)n(CCCNc4ncc(C(F)(F)F)cc4Cl)c3C[C@H]2CN1C(=O)c1ccccc1
STUDY SYSTEM: Human papillomavirus type 1a protein E7 (residues 44-93)
EXPERIMENTAL VALUE: 0.958
//
INPUT SMILES: CCCNC(=O)[C@@]1(Sc2ccc(C)cc2)CC(=O)N(Cc2ccccc2C(F)(F)F)[C@@H]1c1ccc(CO)cc1I
STUDY SYSTEM: Human papillomavirus type 1a protein E7 (residues 44-93)
EXPERIMENTAL VALUE: 1.38
//
INPUT SMILES: [N-]=[N+]=NCc1ccccc1[C@@H]1OC(c2ccc(OCCCO)cc2)=N[C@]1(CCS(=O)(=O)c1ccccc1)C(=O)N1CCOCC1
STUDY SYSTEM: Human papillomavirus type 1a protein E7 (residues 44-93)
EXPERIMENTAL VALUE: 1.41
//
INPUT SMILES: COCCOC(=O)N1C(=O)[C@@]2(c3cc(C#CC4(O)CCCCCC4)ccc31)[C@H](C(=O)Nc1nc3ccccc3s1)[C@H]1C(=O)O[C@H](c3ccccc3)[C@H](c3ccccc3)N1[C@@H]2c1ccccc1OCCO
STUDY SYSTEM: Human papillomavirus type 1a protein E7 (residues 44-93)
EXPERIMENTAL VALUE: -0.441

Kindly note the recorded composite z-score for CCCCCCc1nc(-c2ccc(-c3ccc(Cl)c(Cl)c3)o2)cc2c1[Si](C(C)C)(C(C)C)O[C@H]2c1ccccc1 , which is -0.545

* * *

target: Fibroblast growth factor 10 (Homo sapiens) (UniProt O15520); assay: compounds binding fibroblast growth factor 10 – biochemical, small-molecule microarray, 635 nm fluorescence, primary screen (AID 1102); conditions: FGF10 binding, fluorescence 635 nm, higher = more signal
Sequence (O15520 whole entry, looked up): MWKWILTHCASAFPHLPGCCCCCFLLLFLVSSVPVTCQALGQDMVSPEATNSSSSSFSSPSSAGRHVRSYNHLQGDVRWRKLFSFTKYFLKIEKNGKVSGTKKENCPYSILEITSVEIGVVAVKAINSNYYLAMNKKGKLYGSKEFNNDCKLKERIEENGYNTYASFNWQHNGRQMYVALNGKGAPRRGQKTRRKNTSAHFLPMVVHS
Recorded composite z-score by entry
Please reply with the value in numeric form only.

COMPOUND: CC(C)CNC(=O)[C@@]1(Cc2ccccc2I)c2ccccc2C(=O)N(Cc2ccccc2C(F)(F)F)[C@H]1c1ccc(CO)cc1
composite z-score: 0.122
//
COMPOUND: CCCCN1CC=CC23O[C@@H]4C=CCOC(=O)[C@@H]4[C@H]2C(=O)N(CCCCCCO)[C@@H]3C1=O (some centres undefined)
composite z-score: -0.988
//
COMPOUND: O=C1OCCC/C=C\[C@H]2OC34C=CCN(c5ccc6ccccc6c5)C(=O)[C@H]3N(CCCCCO)C(=O)[C@@H]4C12 (some centres undefined)
composite z-score: -0.862
//
COMPOUND: CCCNC(=O)[C@@]1(Sc2ccc(C)cc2)CC(=O)N(Cc2ccccc2C(F)(F)F)[C@@H]1c1ccc(CO)cc1I
composite z-score: 0.441
//
COMPOUND: COc1ccc([Si](C)(C)[C@H]2[C@H](CC(=O)N3CCC[C@H]3CO)O[C@@]3(C(=O)N(Cc4cccc(N5CCOC5=O)c4)c4ccccc43)[C@@H]2C)cc1
composite z-score: 0.578

Next, consider the following compound.
composite z-score reading for CCCC=C(CCC)[C@@H](NC(=O)OCC(C)C)c1ccccc1 : 0.497

* * *

system: Inhibin beta A chain (activin A); test: small molecules binding activin A – biochemical, small-molecule microarray, 635 nm fluorescence scan, primary screen (AID 1107); settings: INHBA, higher = more signal;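 also: mouse activin A protein probed at 4.33 µg/mL on printed slides; score merges bound-protein fluorescence near 667 nm with spot signal-to-noise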
List of composite z-score values.
Enter a number only.

MOLECULE: O=C(O)C1N=C(c2ccc(OCCCO)cc2)N(c2ccccc2)O1 (stereo not drawn)
composite z-score: 0.712

Value sought: composite z-score, system Inhibin beta A chain (activin A), item CC(CO)N1C(=O)[C@@H]2C3C(=O)OCCC/C=C\[C@H]3OC23C=CCN(CCN2CCOCC2)C(=O)[C@@H]13 (stereo partly drawn) . Result: 0.693

Tested system Inhibin beta A chain (activin A); composite z-score recorded for COC(=O)C(CC#Cc1ccc2c(c1)[C@]1(C(=O)N2)[C@H](c2ccc(O)cc2)N2[C@H](c3ccccc3)[C@H](c3ccccc3)OC(=O)[C@H]2[C@@H]1C(=O)N1CCN(c2ncccn2)CC1)C(=O)OC was 0.126

* * *

The reader will find reported composite z-score values listed item by item below.
test: probe aWnt5a binding to arrayed compounds – biochemical, biotinylated probe, 635/667 nm fluorescence, primary screen (AID 1113); details: small-molecule microarray, higher = more signal;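 also: score merges 667 nm fluorescence intensity with signal-to-noise per printed feature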
API doc: respond with a numeric literal and nothing else, no unit.

Below, 2 compounds whose answers are already recorded.
INPUT SMILES: COCCOC(=O)N1C(=O)[C@@]2(c3cc(C#CCCO)ccc31)[C@H](c1ccc(OCCO)cc1)N1[C@H](c3ccccc3)[C@H](c3ccccc3)OC(=O)[C@H]1[C@@H]2C(N)=O
EXPERIMENTAL VALUE: 0.0136

INPUT SMILES: NC(=O)NCC#Cc1ccc2c(c1)[C@]1(C(=O)N2)[C@H](C(=O)O)[C@H]2C(=O)O[C@H](c3ccccc3)[C@H](c3ccccc3)N2[C@@H]1c1ccc(O)cc1
EXPERIMENTAL VALUE: 0.216

Recorded composite z-score (compound COCC(=C=CC[C@H](O)c1cccc(OCCO)c1)C[C@H](O)c1cc(Cl)cc(Cl)c1O ): -0.0478

* * *

biological target: Fibroblast growth factor 2 (Homo sapiens); assay: basic fibroblast growth factor binding to printed compounds – biochemical, small-molecule microarray, 635/667 nm fluorescence, primary screen (AID 1133); details: FGF2, fluorescence 635/667, higher = more signal
Classify by measured composite z-score: Met if it is equal to or exceeds 1, Not met if it is smaller.

MOLECULE: O=C1O[C@H](c2ccccc2)[C@H](c2ccccc2)N2[C@H]1[C@@H](C(=O)NC[C@H](O)c1ccccc1)[C@]1(C(=O)Nc3ccccc31)[C@H]2c1ccc(O)cc1
ASSIGNED LABEL: Met

From here, focus on the item given below.
Would you say OB1C=CCC(CCc2ccccc2)O1 (stereo not given) shows composite z-score at minimum 1? Not met

* * *

test: probe aNog binding to arrayed compounds – biochemical, biotinylated probe, 635/667 nm fluorescence, primary screen (AID 1115); conditions: small-molecule microarray, higher = more signal;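 also: probe is biotinylated aNog protein used at 0.15 µg/mL for 1 h at 4 C; z-score combines 667 nm fluorescence of each spot with its signal to noise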
Mark label 0 for composite z-score values under -0.1, and label 1 for everything at or above.

COMPOUND: CN1C(=O)C2C=CC(C(O)c3ccc(F)cc3)N(N(c3ccccc3)c3ccccc3)C2C1=O (stereo not given)
ASSIGNED LABEL: label 0

COMPOUND: COCCOC(=O)N1C(=O)[C@@]2(c3cc(C#Cc4ccc(OC)cc4)ccc31)[C@H](c1ccc(O)cc1)N1[C@H](c3ccccc3)[C@H](c3ccccc3)OC(=O)[C@H]1[C@@H]2C(=O)Nc1nc2ccccc2s1
ASSIGNED LABEL: label 0

Please indicate if the recorded composite z-score for O=C(O)[C@@]1(CCS(=O)(=O)c2ccccc2)N=C(c2ccc(OCCCO)cc2)O[C@H]1c1ccccc1 meets or exceeds -0.1. label 1

For this compound, is measured composite z-score -0.1 or higher? C=C(/C(=C/C[C@H](OC(=O)c1ccncc1)c1ccc(OCCO)cc1)c1cc(C(=O)OC)ccc1OC)C(C)C label 1

Entry COc1ccc([Si](C)(C)[C@H]2[C@H](CCn3cc([C@H](O)c4ccccc4)nn3)O[C@@]3(C(=O)N(C)c4ccccc43)[C@@H]2C)cc1 : is its composite z-score no less than -0.1? label 0

* * *

test: JC-1 mitochondrial signal, unstimulated adipocytes – cell-based, JC-1 fluorescence, 3T3-L1 adipocytes, 24 h, 100 nL compound, profiling panel (AID 1168); conditions: JC-1 mitochondrial fluorescence, higher = more signal, called active from +8 up or from −8 down; also: test concentration not given here
Class y: z-score at least -0.4. Class n: z-score below -0.4.

COMPOUND: CC(c1ccccc1)C(O)C1C=CC2C(=O)N(c3ccccc3)C(=O)C2N1Nc1ccccc1 (centres undefined)
ASSIGNED LABEL: y
--
COMPOUND: COC(=O)c1c(CC[C@@H](CO)NC(=O)N[C@@H](Cc2ccccc2)Cn2cc(-c3ccccn3)nn2)oc(C(=O)N2CCOCC2)c1C(=O)OC
ASSIGNED LABEL: y
--
COMPOUND: O=C1C2C=CC(C(O)C=Cc3ccc([N+](=O)[O-])cc3)N(n3cnnc3)C2C(=O)N1Cc1ccccc1 (centres undefined)
ASSIGNED LABEL: n
--
COMPOUND: CC1CC/C=C\[C@H]2OC34C=CCN(Cn5nnc6ccccc65)C(=O)[C@H]3N(CCCCCO)C(=O)[C@@H]4C2C(=O)O1 (some centres undefined)
ASSIGNED LABEL: y
--
COMPOUND: CCCC[C@H]1C[C@@H]1[C@@H]1N(P(=O)(c2ccccc2)c2ccccc2)C[C@@](O)(c2ccccc2)CC12CC2
ASSIGNED LABEL: n
--
COMPOUND: COCCOC(=O)N1C(=O)[C@@]2(c3cc(C#Cc4ccc(OC)cc4)ccc31)[C@H](c1ccc(O)cc1)N1[C@H](c3ccccc3)[C@H](c3ccccc3)OC(=O)[C@H]1[C@@H]2C(=O)Nc1nc2ccccc2s1
ASSIGNED LABEL: y
--
COMPOUND: CC(C)OC(=O)C=C1C[C@@H](c2cccc(Cl)c2)O[C@@H](c2cccc(Cl)c2)O1
ASSIGNED LABEL: y
--
COMPOUND: COc1ccc([Si](C)(C)[C@H]2[C@H](CC(=O)N3CCC[C@H]3CO)O[C@@]3(C(=O)N(Cc4cccc(N5CCOC5=O)c4)c4ccccc43)[C@@H]2C)cc1
ASSIGNED LABEL: y

Does the reported z-score for CCOC(=O)C[C@H]1[C@H](OC(=O)c2ccc(-c3ccccc3)cc2)[C@@H](NC(=O)c2ccccc2)c2cc(OCCCO)ccc2N1C(=O)c1ccc2ccccc2n1 fall at or above the -0.4 mark? n

Quick check, z-score >= -0.4? O=C1O[C@H](c2ccccc2)[C@H](c2ccccc2)N2[C@H]1[C@@H](C(=O)N1CCN(c3ncccn3)CC1)[C@]1(C(=O)Nc3ccc(C#CC4=CCCCC4)cc31)[C@H]2c1ccccc1OCCO y

# check: z-score of CC(C)[Si](C#C[Si](C(C)C)(C(C)C)C(C)C)(O[C@H](C)c1cn(Cc2ccccc2)nn1)C(C)C is greater than or equal to -0.4 y

Has O=C1NC(=O)C2C1C=CC(C(O)c1ccc(I)cc1)N2Nc1ccccn1 (centres undefined) a recorded z-score greater than or equal to -0.4? n

Could you please find out whether C#CCN1[C@H](/C=C/C2CC2)[C@H](Cc2ccccc2)OC(=O)[C@@H]1Cc1ccccc1 has z-score that meets -0.4 or exceeds it? y

Entry C=C(C)[C@@H]1CC=C(C(O)C2C=CC3C(=O)NC(=O)C3N2Nc2ccc(Cl)cc2Cl)CC1 (some centres undefined) : is its z-score no less than -0.4? n
